Molecular target: cytochrome bo3 (Escherichia coli)
Construct: isolated four-subunit His-tagged cytochrome bo3; with other subunits of the four-subunit cytochrome bo3 complex
Sequence (P0ABJ1 25-315): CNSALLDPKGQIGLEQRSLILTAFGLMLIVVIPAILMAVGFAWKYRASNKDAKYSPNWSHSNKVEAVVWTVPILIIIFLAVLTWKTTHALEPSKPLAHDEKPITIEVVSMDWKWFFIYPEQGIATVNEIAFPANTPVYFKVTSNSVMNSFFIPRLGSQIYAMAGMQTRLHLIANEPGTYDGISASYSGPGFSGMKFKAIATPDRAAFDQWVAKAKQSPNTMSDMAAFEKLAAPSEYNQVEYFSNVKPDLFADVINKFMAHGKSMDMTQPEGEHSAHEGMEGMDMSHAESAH
Sequence (P0ABJ6 whole entry, further chain): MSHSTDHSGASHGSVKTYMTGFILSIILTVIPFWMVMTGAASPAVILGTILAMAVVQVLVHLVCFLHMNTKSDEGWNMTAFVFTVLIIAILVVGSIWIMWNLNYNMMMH
Sequence (P0ABI8 whole entry): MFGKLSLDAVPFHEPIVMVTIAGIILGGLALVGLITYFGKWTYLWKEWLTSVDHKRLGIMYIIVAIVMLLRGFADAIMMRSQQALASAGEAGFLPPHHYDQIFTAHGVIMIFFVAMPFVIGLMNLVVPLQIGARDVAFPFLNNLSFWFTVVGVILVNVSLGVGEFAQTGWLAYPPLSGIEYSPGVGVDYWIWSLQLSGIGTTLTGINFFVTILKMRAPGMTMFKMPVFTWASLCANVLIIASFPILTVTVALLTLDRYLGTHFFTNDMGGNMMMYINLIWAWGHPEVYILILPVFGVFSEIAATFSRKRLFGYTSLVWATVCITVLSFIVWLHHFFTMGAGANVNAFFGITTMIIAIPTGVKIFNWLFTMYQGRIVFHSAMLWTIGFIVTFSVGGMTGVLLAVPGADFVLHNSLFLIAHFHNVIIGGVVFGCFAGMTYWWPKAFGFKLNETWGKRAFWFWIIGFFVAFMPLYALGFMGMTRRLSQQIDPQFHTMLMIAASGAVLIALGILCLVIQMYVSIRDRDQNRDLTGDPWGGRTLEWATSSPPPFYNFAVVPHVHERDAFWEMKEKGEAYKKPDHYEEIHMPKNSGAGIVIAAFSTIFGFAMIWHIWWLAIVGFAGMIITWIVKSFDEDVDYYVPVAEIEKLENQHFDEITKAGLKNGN
Sequence (P0ABJ3 whole entry, further chain): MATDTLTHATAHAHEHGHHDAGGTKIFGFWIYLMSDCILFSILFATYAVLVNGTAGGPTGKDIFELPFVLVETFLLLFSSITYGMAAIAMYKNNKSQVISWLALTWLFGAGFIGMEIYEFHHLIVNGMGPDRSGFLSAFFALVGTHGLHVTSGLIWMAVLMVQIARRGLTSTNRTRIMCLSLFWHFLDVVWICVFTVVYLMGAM
Test: UV-visible absorption titration of the isolated oxidized enzyme at pH […] (Soret region, […] nm); inhibition of O2 reductase activity also shown
measured_quantity: pKd
Value format note: pKd is -log10 of concentration (mol/L); just state the number.

Enquiry: Hi! What's the reported pKd for N [ammonia] on cytochrome bo3 (Escherichia coli)?
Return: 2.31

====

Molecular target: cytochrome bd-I (Escherichia coli)
Construct: isolated cytochrome bd-I; with other subunits of the four-subunit cytochrome bd-I complex
Sequence (P0ABK2 whole entry): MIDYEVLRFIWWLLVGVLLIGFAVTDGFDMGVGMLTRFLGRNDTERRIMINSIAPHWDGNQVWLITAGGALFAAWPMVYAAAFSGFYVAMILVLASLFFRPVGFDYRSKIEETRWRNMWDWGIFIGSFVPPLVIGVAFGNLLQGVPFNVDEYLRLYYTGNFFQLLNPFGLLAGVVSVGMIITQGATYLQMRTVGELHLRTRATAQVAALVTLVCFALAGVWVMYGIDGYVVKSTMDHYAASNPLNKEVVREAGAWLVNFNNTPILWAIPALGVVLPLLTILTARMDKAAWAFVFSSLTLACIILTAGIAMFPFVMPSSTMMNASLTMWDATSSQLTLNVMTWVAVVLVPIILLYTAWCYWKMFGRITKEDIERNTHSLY
Sequence (P0ABJ9 whole entry): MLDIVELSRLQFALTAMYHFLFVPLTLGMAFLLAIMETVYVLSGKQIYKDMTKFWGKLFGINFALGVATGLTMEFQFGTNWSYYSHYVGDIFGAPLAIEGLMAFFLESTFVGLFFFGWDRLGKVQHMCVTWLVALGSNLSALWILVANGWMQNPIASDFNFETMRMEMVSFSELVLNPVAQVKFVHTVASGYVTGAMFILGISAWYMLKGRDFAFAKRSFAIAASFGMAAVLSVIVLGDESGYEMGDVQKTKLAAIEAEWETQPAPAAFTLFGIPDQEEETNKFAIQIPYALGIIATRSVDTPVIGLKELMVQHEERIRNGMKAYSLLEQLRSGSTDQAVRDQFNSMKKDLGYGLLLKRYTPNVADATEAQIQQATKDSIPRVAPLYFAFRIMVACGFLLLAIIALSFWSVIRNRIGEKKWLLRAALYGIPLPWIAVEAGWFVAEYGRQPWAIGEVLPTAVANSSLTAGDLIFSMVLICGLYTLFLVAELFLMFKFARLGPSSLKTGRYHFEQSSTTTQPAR
Experiment: UV-visible absorption titration of the isolated oxidized enzyme at pH […] (Soret region, […] nm); activation of O2 reductase activity also shown
measured_quantity: pKd
Remember the convention: pKd equals -log10 of concentration in molar.

Enquiry: Sample N — what was its pKd?
Return: 2.14
